Source listed as patent US9504669B2.

Test system: BT474 (breast cancer) cells
Test: In vitro cell assay (MTS cell viability), BT474
Format: cell-based
Settings: Homo sapiens, BT-474; free compounds (natural products and synthetic analogs); cell viability 96 hours after treatment
Method: Target expressing (BT474 (breast cancer), N87 (gastric cancer), HCC1954 (breast cancer), MDA-MB-361-DYT2 (breast cancer)) or non-expressing (MDA-MB-468) cells were seeded in 96-well cell culture plates for 24 hours before treatment. […] Cell viability was determined by CellTiter 96® AQueous One Solution Cell Proliferation MTS Assay (Promega, Madison Wis.) 96 hours after treatment. Relative cell viability was determined as percentage of untreated control. […]
Catalogue of pIC50 readings, one per entry.
Note on pIC50: it is the negative log10 of concentration, concentration in mol/L.

Would you please look over these solved cases?
{"test_smiles": "CC(=O)O[C@@H](C)/C=C\\C(=O)N[C@@H]1C[C@H](C)[C@H](C/C=C(C)/C=C/[C@H]2O[C@H](CC(=O)NCc3ccc(N)c(F)c3)C[C@@]3(CO3)[C@@H]2O)O[C@@H]1C", "pIC50": 8.83}
{"test_smiles": "CC(=O)O[C@@H](C)/C=C\\C(=O)N[C@@H]1C[C@H](C)[C@H](C/C=C(C)/C=C/[C@@H]2C[C@]3(CO3)C[C@@H](CC(N)=O)O2)O[C@@H]1C", "pIC50": 9.28}
{"test_smiles": "CCCNC(=O)C[C@@H]1C[C@@]2(CO2)[C@H](O)[C@@H](/C=C/C(C)=C/C[C@@H]2O[C@H](C)[C@H](NC(=O)/C=C\\[C@H](C)OC(C)=O)C[C@@H]2C)O1", "pIC50": 9.19}

Field request: pIC50 | item: "CC(=O)O[C@@H](C)/C=C\C(=O)N[C@@H]1C[C@H](C)[C@H](C/C=C(C)/C=C/[C@@H]2C[C@]3(CO3)C[C@@H](CC(=O)NO)O2)O[C@@H]1C"
8.75

* * *

Catalogue of pIC50 readings, one per entry.
System: BT474 (breast cancer) cells
Test: In vitro cell assay (MTS cell viability), BT474
Format: cell-based
Details: Homo sapiens, BT-474; free compounds (natural products and synthetic analogs); cell viability 96 hours after treatment
Note on pIC50: it is the negative log10 of concentration, concentration in mol/L.

Would you please look over these solved cases?
{"molecule": "CC(=O)O[C@@H](C)/C=C\\C(=O)N[C@@H]1C[C@H](C)[C@H](C/C=C(C)/C=C/[C@@H]2C[C@]3(CO3)C[C@@H](CC(=O)N(C)Cc3ccc(S(=O)(=O)N(C)C)cc3)O2)O[C@@H]1C", "pIC50": 7.64}
{"molecule": "CNS(=O)(=O)c1ccc(CNC(=O)C[C@@H]2C[C@@]3(CO3)[C@H](O)[C@@H](/C=C/C(C)=C/C[C@@H]3O[C@H](C)[C@H](NC(=O)/C=C\\[C@H](C)OC(C)=O)C[C@@H]3C)O2)cc1", "pIC50": 7.73}
{"molecule": "CSCCN(C)C(=O)C[C@@H]1C[C@@]2(CO2)C[C@@H](/C=C/C(C)=C/C[C@@H]2O[C@H](C)[C@H](NC(=O)/C=C\\[C@H](C)OC(C)=O)C[C@@H]2C)O1", "pIC50": 7.97}
{"molecule": "CC(=O)O[C@@H](C)/C=C\\C(=O)N[C@@H]1C[C@H](C)[C@H](C/C=C(C)/C=C/[C@H]2O[C@H](CC(=O)N3CCCCC3)C[C@@]3(CO3)[C@@H]2O)O[C@@H]1C", "pIC50": 9.22}
{"molecule": "CC(=O)O[C@@H](C)/C=C\\C(=O)N[C@@H]1C[C@H](C)[C@H](C/C=C(C)/C=C/[C@H]2O[C@H](CC(=O)NCc3ccc(N)cc3)C[C@@]3(CO3)[C@@H]2O)O[C@@H]1C", "pIC50": 8.47}

Field request: pIC50 | item: "CC(=O)O[C@@H](C)/C=C\C(=O)N[C@@H]1C[C@H](C)[C@H](C/C=C(C)/C=C/[C@@H]2C[C@]3(CO3)C[C@@H](CC(=O)O)O2)O[C@@H]1C"
8.29

Field request: pIC50 | item: CC(=O)O[C@@H](C)/C=C\C(=O)N[C@@H]1C[C@H](C)[C@H](C/C=C(C)/C=C/C2CC(O)(CCl)CC(CC(=O)O)O2)O[C@@H]1C (stereo partly shown)
8.71

Field request: pIC50 | item: "CC(=O)O[C@@H](C)/C=C\C(=O)N[C@@H]1C[C@H](C)[C@H](C/C=C(C)/C=C/[C@H]2O[C@H](CC(=O)NCc3ccc(N)c(C(F)(F)F)c3)C[C@@]3(CO3)[C@@H]2O)O[C@@H]1C"
8.74

Field request: pIC50 | item: "CCCC(=O)NC[C@@H]1C[C@@]2(CO2)C[C@@H](/C=C/C(C)=C/C[C@@H]2O[C@H](C)[C@H](NC(=O)/C=C\[C@H](C)OC(C)=O)C[C@@H]2C)O1"
8.44
